molecular target: HLA-B*39:01; assay: IEDB peptide-MHC binding, purified MHC/competitive/fluorescence; filed as Kd, often an IC50 or EC50 that approximates it; bounds were set here for any values at or beyond the usual limits of such assays; conditions: source organism: Toxoplasma gondii
pKd: −log10 of the molar value.
Measured metric: pKd

// query State the recorded pKd for this entry: RTWFYRTEF
// result ≤ 4.70

###

biological target: HLA-B*51:01; assay: IEDB peptide-MHC binding, purified MHC/competitive/fluorescence; filed as Kd, often an IC50 or EC50 that approximates it; bounds were set here for any values at or beyond the usual limits of such assays; conditions: source organism: Kurkino virus
pKd: −log10 of the molar value.
Measured metric: pKd

// query State the recorded pKd for this entry: WFLYVSQQI
// result ≤ 4.70
